Experiment: Mouse whole blood stability
Assay type: in vitro ADME
Details: 37° C.
Counter-ions that a name gives are not always drawn.
Observation Type: Blood stability (% of compound remaining after 240 min.) Mouse Blood

# Compound, Endpoint Value
records = [
    ("CC(OC(=O)CCCCC(=O)O)OC(=O)NCCCS(=O)(=O)O (stereo not drawn)", "++ (++: 30-75%)"),
    ("CC(OC(=O)CCC(=O)OCc1ccccc1)OC(=O)NCCCS(=O)(=O)O (stereo not drawn)", "+ (+: <30%)"),
    ("O=C(NCCCS(=O)(=O)O)[C@@H]1CCCN1", "++ (++: 30-75%)"),
    ("N[C@@H](Cc1c[nH]cn1)C(=O)NCCCS(=O)(=O)O", "+++ (+++: >75%)"),
    ("CC(=O)Oc1ccc(COC(=O)NCCCS(=O)(=O)O)cc1 [Compound C1, Sodium Salt]", "+ (+: <30%)"),
    ("CC(C)(N)C(=O)NCCCS(=O)(=O)O", "+++ (+++: >75%)"),
    ("CSCC[C@H](N)C(=O)NCCCS(=O)(=O)O", "+ (+: <30%)"),
    ("CC(OC(=O)CC(C)(C)CC(=O)OCc1ccccc1)OC(=O)NCCCS(=O)(=O)O (stereo not drawn)", "+ (+: <30%)"),
    ("CC(=O)OC(OC(=O)NCCCS(=O)(=O)O)C(C)C (stereo not drawn)", "+ (+: <30%)"),
]

----------
// reported half-life per item
Assay: Metabolic profiling of 14C-3APS in mice
Type: in vivo, male CD-1 mice
Conditions: male, CD-1, mouse, plasma, po, 100 mg/kg, Mouse plasma; analyte after single oral 100 mg/kg 14C-3APS

# Structure Smiles String, half-life
data = [
    ("NCCCS(=O)(=O)O", "~2 h"),
    ("O=C(O)CCS(=O)(=O)O", "~2 h"),
]

----------
Test: Single oral and IV administration of 14C-3APS to rats
Type: in vivo, male Sprague-Dawley rats
Conditions: male, Sprague-Dawley, rat, plasma, iv, 100 mg/kg, 100 mg/kg 14C-3APS, rats, individual animals 1001-1004
Observation Type: AUC(0-inf) (µM·h)

# Structure Smiles String, Observation Type, Units Of Measure, Endpoint Value
records = [
    ("O=C(O)CCS(=O)(=O)O", "AUC(0-inf)", "µM·h", 105),
    ("NCCCS(=O)(=O)O", "AUC(0-inf)", "µM·h", 1530),
]

----------
Test: Mouse whole blood stability
Type: in vitro ADME
Settings: 37° C.
Observation Type: Blood stability (% of compound remaining after 240 min.) Mouse Blood

# Molecule, Endpoint Value
rows = [
    ("CC(OC(=O)NCCCS(=O)(=O)O)OC(=O)C(C)(C)C (stereo not drawn) [Compound C15]", "+ (+: <30%)"),
    ("CC(OC(=O)NCCCS(=O)(=O)O)OC(=O)C(C)C (stereo not drawn) [Compound C18]", "+ (+: <30%)"),
    ("CC(OC(=O)CCCC(=O)O)OC(=O)NCCCS(=O)(=O)O (stereo not drawn) [Compound C11]", "+++ (+++: >75%)"),
    ("CC(C)C(OC(=O)NCCCS(=O)(=O)O)OC(=O)C(C)(C)C (stereo not drawn) [Compound C23]", "+ (+: <30%)"),
    ("NCC(=O)NCCCS(=O)(=O)O [Compound A10]", "++ (++: 30-75%)"),
    ("CC(C)[C@H](N)C(=O)NCCCS(=O)(=O)O [Compound A2]", "++ (++: 30-75%)"),
    ("N[C@@H](CCC(=O)OCc1ccccc1)C(=O)NCCCS(=O)(=O)O [Compound A19]", "+ (+: <30%)"),
    ("CC(OC(=O)NCCCS(=O)(=O)O)OC(=O)C1CCCCC1 (stereo not drawn) [Compound C17]", "+ (+: <30%)"),
    ("CC(C)(C)C(=O)OC(OC(=O)NCCCS(=O)(=O)O)C1CCCCC1 (stereo not drawn) [Compound C20]", "+ (+: <30%)"),
    ("O=C(O)CCC(=O)NCCCS(=O)(=O)O [Compound B5]", "+++ (+++: >75%)"),
    ("N[C@@H](Cc1ccccc1)C(=O)NCCCS(=O)(=O)O [Compound A1]", "+ (+: <30%)"),
    ("N[C@@H](CO)C(=O)NCCCS(=O)(=O)O [Compound A7]", "+++ (+++: >75%)"),
]

----------
Assay: Metabolic profiling of 14C-3APS in rats
Type: in vivo, male Sprague-Dawley rats
Details: male, Sprague-Dawley; Rat plasma; analyte (3APS or metabolite) after single oral 100 mg/kg 14C-3APS
List of Cmax values.

# Structure Smiles String, Cmax (µM)
rows = [
    ("O=C(O)CCS(=O)(=O)O", 23.4),
    ("NCCCS(=O)(=O)O", 218),
]

----------
Experiment: Single oral and IV administration of 14C-3APS to rats
Type: in vivo, male Sprague-Dawley rats
Conditions: male, Sprague-Dawley, rat, plasma, po, 100 mg/kg, 100 mg/kg 14C-3APS, rats, Mean

# Structure Smiles String, AUC(0-inf), µM·h
measured = [
    ("NCCCS(=O)(=O)O", 507),
    ("O=C(O)CCS(=O)(=O)O", 198),
]

----------
Assay: Metabolic profiling of 14C-3APS in dogs
Assay type: in vivo, male Beagle dogs
Conditions: male, Beagle; Dog plasma; analyte (3APS or metabolite) after single oral 100 mg/kg 14C-3APS
Observation Type: Cmax (µM)

# Structure Smiles String, Observation Type, Endpoint Value
rows = [
    ("O=C(O)CCS(=O)(=O)O", "Cmax", 31.2),
    ("NCCCS(=O)(=O)O", "Cmax", 250),
]

----------
Experiment: Metabolic profiling of 14C-3APS in dogs
Type: in vivo, male Beagle dogs
Settings: male, Beagle, dog, plasma, po, 100 mg/kg, Dog plasma; analyte after single oral 100 mg/kg 14C-3APS
Observation Type: half-life

# Compound, Endpoint Value
measured = [
    ("NCCCS(=O)(=O)O [Compound 3APS, 3-amino-1-propanesulfonic acid]", "~5 h"),
]

----------
Assay: Metabolic profiling of 14C-3APS in dogs
Assay type: in vivo, male Beagle dogs
Settings: male, Beagle, dog, plasma, po, 100 mg/kg, Dog plasma; analyte after single oral 100 mg/kg 14C-3APS
Description: Three single dose studies were conducted in mice, rats and dogs to determine the metabolic profile of ^14C-3APS in plasma, urine and feces. […] All samples were analyzed for total radioactivity using appropriate sample preparation procedures and scintillation counting. Plasma and urine samples were also analyzed for 3APS and 3APS metabolites (2-carboxyethanesulfonic acid, 3-hydroxy-1-propanesulfonic acid and 3-acetylamino-1-propanesulfonic acid) concentrations using qualified HPLC and MS/MS methods.

# Structure Smiles String, Tmax (h)
data = [
    ("O=C(O)CCS(=O)(=O)O", 12),
]

----------
Assay: Human whole blood stability
Type: in vitro ADME
Details: 37° C.
Counter-ions that a name gives are not always drawn.
Observation Type: Blood stability (% of compound remaining after 240 min.) Human Blood

# Compound, Endpoint Value
records = [
    ("CC(OC(=O)CC(C)(C)CC(=O)OCc1ccccc1)OC(=O)NCCCS(=O)(=O)O (stereo not shown)", "+++ (+++: >75%)"),
    ("CC(C)C[C@H](N)C(=O)NCCCS(=O)(=O)O", "+ (+: <30%)"),
    ("C[C@@H](N)C(=O)NCCCS(=O)(=O)O", "+++ (+++: >75%)"),
    ("CC(OC(=O)NCCCS(=O)(=O)O)OC(=O)C(C)(C)c1cccs1 (stereo not shown)", "+ (+: <30%)"),
    ("C[C@H](N)C(=O)NCCCS(=O)(=O)O", "+ (+: <30%)"),
    ("N[C@@H](CCC(=O)OCc1ccccc1)C(=O)NCCCS(=O)(=O)O", "+ (+: <30%)"),
    ("CC(OC(=O)CCCC(=O)OCc1ccccc1)OC(=O)NCCCS(=O)(=O)O (stereo not shown)", "++ (++: 30-75%)"),
    ("CC(=O)OC(OC(=O)NCCCS(=O)(=O)O)C(C)C (stereo not shown)", "++ (++: 30-75%)"),
    ("CC(OC(=O)NCCCS(=O)(=O)O)OC(=O)c1ccccc1 (stereo not shown) [Compound C16, Sodium Salt]", "++ (++: 30-75%)"),
    ("CC(C)(C)C(=O)OC(OC(=O)NCCCS(=O)(=O)O)C1CCCCC1 (stereo not shown)", "++ (++: 30-75%)"),
    ("CSCC[C@@H](N)C(=O)NCCCS(=O)(=O)O", "+++ (+++: >75%)"),
    ("NCCCC[C@H](N)C(=O)NCCCS(=O)(=O)O", "+ (+: <30%)"),
    ("CC(OC(=O)NCCCS(=O)(=O)O)OC(=O)C(C)(C)C (stereo not shown)", "++ (++: 30-75%)"),
    ("N[C@@H](COCc1ccccc1)C(=O)NCCCS(=O)(=O)O", "+ (+: <30%)"),
    ("N[C@@H](Cc1c[nH]cn1)C(=O)NCCCS(=O)(=O)O", "+++ (+++: >75%)"),
    ("CC(=O)OC(OC(=O)NCCCS(=O)(=O)O)C(C)(C)C (stereo not shown)", "++ (++: 30-75%)"),
    ("CC(C)(N)C(=O)NCCCS(=O)(=O)O", "+++ (+++: >75%)"),
    ("O=C(O)CCC(=O)NCCCS(=O)(=O)O", "+++ (+++: >75%)"),
    ("CC(OC(=O)CCCCC(=O)OCc1ccccc1)OC(=O)NCCCS(=O)(=O)O (stereo not shown)", "+ (+: <30%)"),
    ("CC(OC(=O)CCCCC(=O)O)OC(=O)NCCCS(=O)(=O)O (stereo not shown)", "++ (++: 30-75%)"),
    ("CC(OC(=O)CCC(=O)OCc1ccccc1)OC(=O)NCCCS(=O)(=O)O (stereo not shown)", "+ (+: <30%)"),
    ("CC(OC(=O)CCCC(=O)O)OC(=O)NCCCS(=O)(=O)O (stereo not shown)", "+++ (+++: >75%)"),
    ("N[C@H](C(=O)NCCCS(=O)(=O)O)c1ccccc1", "++ (++: 30-75%)"),
    ("CC(OC(=O)CC(C)(C)CC(=O)O)OC(=O)NCCCS(=O)(=O)O (stereo not shown)", "+++ (+++: >75%)"),
    ("N[C@@H](CO)C(=O)NCCCS(=O)(=O)O", "+++ (+++: >75%)"),
]
